Assay: inhibitors of HIV fusion peptide binding, primary screen, biochemical, uHTS, fluorescence dequenching (AID 1986)
Conditions: cell-free peptide binding, 30 min, at 20 µM, active compounds read high
Hit rate of the full screen: of about 290,000 compounds, about 890 (0.31%) were called active. Shown is part of a subset that was picked to be rich in actives.
# inhibition values compiled below

// known answers, use as guide
{"structure.string": "CCCNC(=O)Cn1c(=O)/c(=C\\c2ccc(-c3cccc([N+](=O)[O-])c3)o2)s/c1=C\\C(=O)C(C)(C)C", "inhibition": "23.1% (inactive)"}
{"structure.string": "CC(C)(C)C(=O)/C=c1\\s/c(=C\\c2ccc(-c3ccc([N+](=O)[O-])cc3)o2)c(=O)n1CC(=O)NC(N)=O", "inhibition": "76.8% (active)"}
{"structure.string": "CCCNC(=O)Cn1c(=O)/c(=C\\c2ccc(-c3ccc([N+](=O)[O-])cc3)o2)s/c1=C\\C(=O)C(C)(C)C", "inhibition": "145% (inactive)"}

--- query ---
Req: Using known records, supply inhibition for COC(=O)CCSCC(=O)Nc1ccc(S(=O)(=O)N2CCOCC2)cc1OC
Resp: 0.8% (inactive)

---

Assay: inhibitors of HIV fusion peptide binding, primary screen, biochemical, uHTS, fluorescence dequenching (AID 1986)
Conditions: cell-free peptide binding, 30 min, at 20 µM
The campaign covered roughly 290,000 compounds. About 890 (0.31%) were called active. Rule as the data show it: active = inhibition mostly above about 52% (no sharp cut-off); inactive = mostly below about 76%. The sample holds actives, similar compounds and a random draw of the others, so the mix is not that of the screen.
In this exercise, the only acceptable responses are YES = active, NO = inactive

Before answering, review these 4 worked examples.
{"structure.string": "Cc1snc(SCc2cccc(Cl)c2)c1C#N", "class.name": "NO"}
{"structure.string": "CC(=O)c1cc(NC(=O)c2cccc(C(F)(F)F)c2)c(=O)oc1/C=C/N(C)C", "class.name": "YES"}
{"structure.string": "CN1CCN(c2ccc(NC(=O)COc3ccccc3[N+](=O)[O-])cc2)CC1", "class.name": "NO"}
{"structure.string": "O=C1CC(c2ccccc2)=NN1c1nc(-c2ccccc2)cs1", "class.name": "YES"}

Continue with the next compound.
Req: Lab log entry: CC(=O)c1cc(NC(=O)c2cccc(C(F)(F)F)c2)c(=O)oc1C — outcome as called in the assay?
Resp: NO

---

# inhibition values compiled below
Assay: inhibitors of HIV fusion peptide binding, primary screen, biochemical, uHTS, fluorescence dequenching (AID 1986)
Conditions: cell-free peptide binding, 30 min, at 20 µM, active compounds read high
The campaign covered roughly 290,000 compounds. About 890 (0.31%) were called active. For the sample, actives were picked, then their nearest neighbours and some compounds at random.
Numeric only. Scale: %

{"compound": "Cc1c(C(=O)OCC(=O)N(C)c2ccccc2)oc2ccccc12", "unit.of.measure": "%", "inhibition": 1.2}
{"compound": "CCOC(=O)/C(C#N)=C/c1ccc(N2CCN(C)CC2)cc1", "unit.of.measure": "%", "inhibition": 7.2}
{"compound": "N#Cc1c(C(F)(F)F)cc(-c2ccccc2)nc1SCc1nc(N)nc(N2CCOCC2)n1", "unit.of.measure": "%", "inhibition": 66.7}
{"compound": "N#Cc1c(C(F)(F)F)cc(-c2ccccc2)nc1SCCN1CCOCC1", "unit.of.measure": "%", "inhibition": 2.6}
{"compound": "C#CCSc1nc(-c2ccccc2)cc(C(F)(F)F)c1C#N", "unit.of.measure": "%", "inhibition": -0.2}
{"compound": "Cc1nc2ccc(S(=O)(=O)Nc3cc(-c4nc5cccnc5s4)ccc3C)cc2s1", "unit.of.measure": "%", "inhibition": 3.9}
{"compound": "Clc1ncc(Cn2cccn2)s1", "unit.of.measure": "%", "inhibition": -0.3}
{"compound": "CCOC(=O)/C(C#N)=C\\c1ccc(N2CCN(C/C=C/c3ccccc3)CC2)cc1", "unit.of.measure": "%", "inhibition": 117}

Req: Using known records, supply inhibition for CC(C)(C)C(=O)N=C1SC2CS(=O)(=O)CC2N1c1ccc2c(c1)OCO2 (stereo unspecified)
Resp: -0.3

Req: Using known records, supply inhibition for CCc1ccccc1N(C(=O)CCC(=O)Nc1cc(C)on1)C(C(=O)NC1CCCC1)c1ccco1 (stereo unspecified)
Resp: 0.8

Req: Using known records, supply inhibition for Cn1c(COc2ccccc2)nnc1SCC(=O)NCc1ccccc1
Resp: -0.1
